- Experiment Notes: physchem
- Run Parameters: buffer, pH 7.4
- Description: GSK_TB: GSK in-house hydrophobicity assay at pH7.4 (logD)
Criterion: logD meeting or surpassing 4. Met: 1 (yes). Not met: 0 (no).

Is reported logD greater than or equal to 4 here: Cc1cc(OCC(=O)Nc2ccccc2)c2cc(Br)ccc2n1
1 (yes)

Lookup CCCCS(=O)(=O)Nc1ccc2cnn(C)c2c1
0 (no)

What do you have for O=C(Nc1nnc(-c2ccc(Cl)cc2)o1)c1cccc(C(F)(F)F)c1 ?
1 (yes)

What do you get for O=C(NC(Cc1ccccc1)C(=O)Nc1ccccc1N1CCOCC1)c1cccs1 (configuration not stated) ?
1 (yes)

Note, next up: Brc1cncc(-c2cc(NCCCn3ccnc3)nc(-c3ccccc3)n2)c1
1 (yes)

// next record O=C(NCc1ccc2c(c1)OCO2)c1c(C(F)(F)F)nc2ccccn12
1 (yes)

# repeat for COc1ccc2sc(Nc3nc(-c4ccccn4)cs3)nc2c1
1 (yes)

Record: Cc1ccc2nc(Cl)c(CNCc3cccs3)cc2c1
1 (yes)

Try this molecule next: FC(F)(F)c1nnc2ccc(Cl)nn12
0 (no)

Repeat with Cc1ccc2nc(C(F)(F)F)c(C(=O)NCc3ccc(C)o3)n2c1
1 (yes)

Queued: CC(=O)N1CCc2cc3nc(C)cc(C)c3cc21
0 (no)

Try this molecule next: CCc1ccc(C2CC(C(F)(F)F)n3ncc(C(=O)NCc4cccs4)c3N2)cc1 (configuration not stated)
1 (yes)

Same question, COc1ccc(-c2nsc(SCC(=O)N3CCCC3)n2)cc1 this time
1 (yes)

Proceed to COc1ccc(-c2cncc(-c3cc(N4CCN(CCO)CC4)nc(-c4ccccc4)n3)c2)cc1
1 (yes)

Try this molecule too: Cc1ccc2nc(C)c(C(=O)NCC(C)C)n2c1
0 (no)

What do you get for Cc1nc2ccccn2c1C(=O)NCc1ccc2c(c1)OCO2 ?
0 (no)

Same read-out for Cl.Cl.O=C(Nc1ccc(NC2=NCCN2)cc1)c1ccc(C(=O)Nc2ccc(NC3=NCCN3)cc2)cc1 ?
0 (no)

----------
- Experiment Notes: physchem
- Run Parameters: octanol/water
- Description: GSK_TB: GSK in-house hydrophobicity assay (logP)
Observable: logP

Fill blank: measured logP of the compound CSc1ccc(C(=O)Nc2nc(-c3ccccn3)cs2)cc1 is ____.
5.06

Record: COc1cc(C(F)(F)F)nc2ccc(C)c(N)c12
5.13

Another compound to look at: CCCCS(=O)(=O)Nc1ccc2cnn(C)c2c1
3.58

One more compound: Cc1n[nH]c(C)c1S(=O)(=O)NCc1nc(NCCCc2ccccc2)c2ccccc2n1
4.52

Another compound: Br.CCc1ccccc1OCCCON1C(=N)N=C(N)NC1(C)C
4.83

What do you get for COc1cc(Cc2cnc(N)nc2N)c2cnccc2c1N(C)C ?
2.61

Now the same for FC(F)(F)c1cc(SCc2ccccc2)nc(-c2ccccn2)n1
7.54

Can you handle Cc1cc(OCC(=O)Nc2ccccc2)c2cc(Br)ccc2n1 next?
5.44

How about this compound: Br.Cc1ccccc1OCCCON1C(=N)N=C(N)NC1(C)C
3.92

Input CCc1nc2ccccc2n1CC(O)COc1cc(C)ccc1Cl (centres undefined)
5.63

Input CCCc1ccc(S(=O)(=O)Nc2ccc(CN3CCN(CC4CC4)CC3)cc2)cc1.O=C(O)C(F)(F)F.O=C(O)C(F)(F)F
5.54

For CCc1c(C)nc(-n2nc(C)cc2NC(=O)c2ccccc2SC)[nH]c1=O then?
6.48

Try the compound O=C(NCc1ccccc1F)N1CCN(Cc2ccc(Br)s2)CC1
5.93

And CN1CCN(c2cc(-c3ccncc3)nc(-c3ccccc3)n2)CC1 ?
5.54

Okay, and O=C(c1cc2c(s1)CCC2)N1CCN(Cc2ccc3c(c2)OCO3)CC1 ?
6.34

Cool, now C[C@@H](NCCc1nc(-c2cn(C)c3ccccc23)no1)C1CCCCC1.Cl
8.75

And what about the compound O=C(O)C(F)(F)F.c1ccc(C[C@H]2CN(c3nccc(Oc4ccc(-n5ccnc5)cc4)n3)CCN2)cc1 ?
4.33

How about CNc1nc(SCC(=O)N(C)Cc2ccc(Cl)s2)nc2ccccc12 ?
5.23

Same question, O=C(NNC(=O)c1ccc([N+](=O)[O-])o1)c1ccc2ccccc2c1 this time
3.48

Please do the same for Nc1cc(OCc2ccccc2)ccc1Nc1ccccc1 as well.
6.94

Follow-up item: O=C(Nc1nc(-c2ccccn2)cs1)c1cncn1-c1ccccc1
3.38

Consider next the compound COc1ccc(-c2cncc(-c3cc(N4CCN(CCO)CC4)nc(-c4ccccc4)n3)c2)cc1 in the same way.
6.34

And COc1cc(Nc2ccccc2)ccc1NS(=O)(=O)c1c(C)noc1C ?
5.78

Also need c1csc(-c2nnc(Sc3ccnc(N4CCN(c5ccncc5)CC4)n3)n2CCCN2CCOCC2)c1 , thanks.
3.12

Then NC(=O)c1cc(-c2ccsc2)ccc1OCCOc1ccccc1 ?
5.78

Consider next the compound COc1ccc(Nc2ccccc2NC(=O)c2ccc(O)nc2)cc1 in the same way.
2.97

Now try c1ccc(-c2nc(NC3CCCCC3)cc(C3CC3)n2)nc1 .
6.74

Repeat for the following compound: O=C(CCC1CCCCC1)Nc1cccc(-c2nnc(-c3ccco3)o2)c1
7.18

Subsequent entry: O=C(NC1=NCCS1)c1sc2cc(F)ccc2c1Cl
5.49

Likewise for OC1(c2ccccc2)Oc2ccccc2N=C1c1ccccc1 (centres undefined) ?
6.19

Same for O=C(C1CCN(c2nnc(-n3cccc3)s2)CC1)N1CCC(Cc2ccccc2)CC1
6.78

Next compound up: COc1ccccc1OCCCCn1c(C2CC2)nc2ccccc21
5.83

Also check Cc1nc2ccccn2c1C(=O)NCc1cccs1
2.93

And for Br.CC(C)(C)c1ccccc1OCCCON1C(=N)N=C(N)NC1(C)C ?
6.14

And then CC(=O)N1CCc2cc3nc(C)cc(C)c3cc21 , what is it?
2.65

And for Br.CC1(C)N=C(N)N=C(N)N1OCCc1ccc2ccccc2c1 ?
4.23

Entry to check: N#Cc1ccc2c(c1)CCN(CCCSc1ccnc3cc(C(F)(F)F)ccc13)CC2
8.64

Try the compound Cn1c(=O)c2c([S+](C)[O-])snc2n(C)c1=O (centres undefined)
1.24

O=C(COc1ccccc1)N1CCN(c2cnc3ccccc3n2)CC1 ?
4.72

// provenance: ChEMBL document CHEMBL2095176
